experimental endpoint: boiling point (°C)
Give a bare numeral; the unit °C is implied.

Annotate the compound CC(=O)OCCO with its measured boiling point.
188

Annotate the compound CC(C)(C)C(=O)C(C)(C)C with its measured boiling point.
152

Annotate the compound c1ccc2c(c1)c1ccccc1c1ccccc21 with its measured boiling point.
425

Annotate the compound CN(C)C with its measured boiling point.
2.87

Annotate the compound NCc1ccccn1 with its measured boiling point.
203

Annotate the compound CCOCC(O)CO (centres undefined) with its measured boiling point.
222

Annotate the compound CCc1ccc2ccccc2n1 with its measured boiling point.
246

Annotate the compound Cc1ccc([N+](=O)[O-])cc1Cl with its measured boiling point.
260

Annotate the compound CCCCC(CC)CNCC(CC)CCCC (centres undefined) with its measured boiling point.
281

====

Hi there, I'd appreciate the recorded boiling point for every entry that follows.
Give a bare numeral; the unit °C is implied.

Annotate the compound Fc1cc(F)nc(F)n1 with its measured boiling point.
98

Annotate the compound CC(=O)c1ccc(Br)cc1 with its measured boiling point.
257

Annotate the compound Clc1cccc(-c2ccccc2)c1 with its measured boiling point.
284

Annotate the compound CCCCCCCCOC(=O)c1ccccc1C(=O)OCCCCCCCC(C)C with its measured boiling point.
447

Annotate the compound ClC1=C(Cl)[C@]2(Cl)[C@H]3[C@H]([C@@H]4O[C@]4(Cl)[C@@H]3Cl)[C@@]1(Cl)C2(Cl)Cl (mixture of isomers) with its measured boiling point.
353

Annotate the compound CCOC(=O)CC(C)C(=O)OCC (stereo unspecified) with its measured boiling point.
218

Annotate the compound O=C(C(Cl)(Cl)Cl)C(Cl)(Cl)Cl with its measured boiling point.
203

Annotate the compound CC(C)CCO[N+](=O)[O-] with its measured boiling point.
146

Annotate the compound CC=C(Cl)Cl with its measured boiling point.
76.5

Annotate the compound CC(C)CNCC(C)C with its measured boiling point.
140

Annotate the compound Cc1cc(Cl)ccc1N with its measured boiling point.
244

Annotate the compound Nc1ccccc1Nc1ccccc1 with its measured boiling point.
313

Annotate the compound CCCCC[C@@H](O)CC with its measured boiling point.
171

Annotate the compound OCCc1ccccc1 with its measured boiling point.
218

Annotate the compound Cc1cccc(N)c1C with its measured boiling point.
222

Annotate the compound N#Cc1cccc(N)c1 with its measured boiling point.
289

Annotate the compound CCC#CCCO with its measured boiling point.
163

Annotate the compound CCCCCCCC#N with its measured boiling point.
205

Annotate the compound ClCCCCCCCCCl with its measured boiling point.
241

Annotate the compound CCC(C)N (stereo unspecified) with its measured boiling point.
62.8

Annotate the compound C[Si](C)(C)N=C=N[Si](C)(C)C with its measured boiling point.
164

Annotate the compound ClCc1ccc(Cl)c(Cl)c1 with its measured boiling point.
241

Annotate the compound Cc1ccc([N+](=O)[O-])c(C)c1 with its measured boiling point.
247

Annotate the compound C#CCCCCCCCCC with its measured boiling point.
196

Annotate the compound CCCC(C)C with its measured boiling point.
60.2

Annotate the compound CCC[C@H]1CCCCN1 with its measured boiling point.
166

Annotate the compound C1CCOC1 with its measured boiling point.
65

Annotate the compound O=NN1CCOCC1 with its measured boiling point.
225

Annotate the compound Cc1ccc(Cl)c(O)c1 with its measured boiling point.
213

Annotate the compound N#CCCCOc1ccccc1 with its measured boiling point.
288

Annotate the compound O=C1CCCCCN1 with its measured boiling point.
270

Annotate the compound CC(C)=C(C)C with its measured boiling point.
73.3

Annotate the compound COC(=O)c1ccccc1C with its measured boiling point.
215

Annotate the compound CC(=O)c1ccco1 with its measured boiling point.
175

Annotate the compound Cc1ccccc1C(C)C with its measured boiling point.
178

Annotate the compound Cc1cccc(Cl)c1 with its measured boiling point.
162

Annotate the compound CCCC#CCCCCCC with its measured boiling point.
198

Annotate the compound NCC(F)(F)F with its measured boiling point.
37.5

Annotate the compound C#CC=C with its measured boiling point.
5.1

Annotate the compound CC(=O)c1cc(C)ccc1O with its measured boiling point.
210

Annotate the compound OCCBr with its measured boiling point.
150

Annotate the compound CC(C)(O)C#CC(C)(C)O with its measured boiling point.
205

Annotate the compound Oc1ccccc1-c1ccccc1 with its measured boiling point.
286

Annotate the compound CNC(=O)c1ccccc1 with its measured boiling point.
291

Annotate the compound O=C(Cl)CCl with its measured boiling point.
106

Annotate the compound C#CC(C)C with its measured boiling point.
26.3

Annotate the compound CC(C)(C)C with its measured boiling point.
9.5

Annotate the compound CC(Cl)(Cl)CCl with its measured boiling point.
124

Annotate the compound COc1ccc(CCl)cc1 with its measured boiling point.
262

Annotate the compound Cc1cc(Cl)c(O)c(Cl)c1 with its measured boiling point.
231

Annotate the compound CC=C(CC)CC with its measured boiling point.
96

Annotate the compound c1cc2ccc3ccc4ccc5ccc6ccc1c1c2c3c4c5c61 with its measured boiling point.
525

Annotate the compound C=Cc1ccccc1C with its measured boiling point.
170

Annotate the compound C=Cc1cccc(C)c1 with its measured boiling point.
164

Annotate the compound C=C1CCC2CC1C2(C)C (stereo unspecified) with its measured boiling point.
166

Annotate the compound Nc1cccc(N)n1 with its measured boiling point.
285

Annotate the compound CCc1cc(C)c(C)cc1C with its measured boiling point.
213

Annotate the compound c1ccc(OC2CCCCC2)cc1 with its measured boiling point.
261

Annotate the compound CCC(C)CC(C)=O (stereo unspecified) with its measured boiling point.
144

Annotate the compound C=CCCC(C)=O with its measured boiling point.
130

Annotate the compound CC(C)OC(=O)Cl with its measured boiling point.
105

Annotate the compound Cc1ccccc1C(=O)O with its measured boiling point.
259

Annotate the compound C1CCC2(CC1)CCCCC2 with its measured boiling point.
207

Annotate the compound c1ccc(OCC2CO2)cc1 (stereo unspecified) with its measured boiling point.
245

Annotate the compound Fc1cccc2ccccc12 with its measured boiling point.
215

Annotate the compound CCCCCCO with its measured boiling point.
158
